Provenance of the data: PubChem BioAssay (NCI)

Recorded TGI for the following molecules
Tested on: OVCAR-4 ovarian
protocol.details: NCI tumour cell line growth inhibition, 48 h
measured.endpoint: TGI

{"molecule": "CC[O-].CC[O-].[O-]c1ccccc1C=NC12CC3CC(CC(C3)C1)C2.[O-]c1ccccc1C=NC12CC3CC(CC(C3)C1)C2.[Ti+4]", "system.tested": "OVCAR-4 ovarian", "measured.endpoint": "TGI", "result.value": "> 100 µM"}
{"molecule": "O=C1c2ccccc2C(=O)N1C/C=N/NS(=O)(=O)c1cccc([N+](=O)[O-])c1", "system.tested": "OVCAR-4 ovarian", "measured.endpoint": "TGI", "result.value": "> 100 µM"}
{"molecule": "N#CSc1c[nH]c2ccc(/C=C/C(=O)/C=C(O)/C=C/c3ccc4[nH]cc(SC#N)c4c3)cc12", "system.tested": "OVCAR-4 ovarian", "measured.endpoint": "TGI", "result.value": "18.6 µM"}
{"molecule": "COc1ccc(CC(C)NCC(O)c2ccc(O)c(NC=O)c2)cc1 (stereo unspecified)", "system.tested": "OVCAR-4 ovarian", "measured.endpoint": "TGI", "result.value": "> 100 µM"}
{"molecule": "O=C(O)c1c2c(c(O)c3c1CN(C1CCCCC1)CO3)OCN(C1CCCCC1)C2", "system.tested": "OVCAR-4 ovarian", "measured.endpoint": "TGI", "result.value": "> 100 µM"}
{"molecule": "Cc1ccc(NC(=O)c2ccoc2)cc1-c1ccc(C(=O)NCC2CC2)cc1", "system.tested": "OVCAR-4 ovarian", "measured.endpoint": "TGI", "result.value": "> 25 µM"}
{"molecule": "CC1(N2CCOCC2)CC2C(=[N+]1[O-])CCC/C2=N/O (stereo unspecified)", "system.tested": "OVCAR-4 ovarian", "measured.endpoint": "TGI", "result.value": "> 100 µM"}
{"molecule": "CCOC(=O)c1nc(SC)sc1NC(=O)c1ccc(OC)cc1", "system.tested": "OVCAR-4 ovarian", "measured.endpoint": "TGI", "result.value": "89.9 µM"}
{"molecule": "Oc1ccc(CCNc2nc3ccccc3c3[nH]c4ccccc4c23)cc1O", "system.tested": "OVCAR-4 ovarian", "measured.endpoint": "TGI", "result.value": "16.9 µM"}
{"molecule": "CCOC(=O)c1sc2nc(=S)[nH]c(NC(N)=S)c2c1C", "system.tested": "OVCAR-4 ovarian", "measured.endpoint": "TGI", "result.value": "> 100 µM"}
{"molecule": "O=c1c2ccccc2c(=O)n2n1-c1cccc(c1)CSSCc1cccc-2c1", "system.tested": "OVCAR-4 ovarian", "measured.endpoint": "TGI", "result.value": "> 100 µM"}
{"molecule": "CC1COS(=O)N1c1ccccc1 (stereo unspecified)", "system.tested": "OVCAR-4 ovarian", "measured.endpoint": "TGI", "result.value": "> 100 µM"}
{"molecule": "C/C(=C1\\C(=O)Nc2ccccc21)c1cccc(/C(C)=C2/C(=O)Nc3ccccc32)n1", "system.tested": "OVCAR-4 ovarian", "measured.endpoint": "TGI", "result.value": "> 100 µM"}
{"molecule": "[N-]=[N+]=NC1C(Cl)C(=O)NC(=O)N1[C@H]1C[C@H](O)[C@@H](CO)O1 (stereo partly specified)", "system.tested": "OVCAR-4 ovarian", "measured.endpoint": "TGI", "result.value": "> 100 µM"}
{"molecule": "CN1CCC2(CC1)C(=O)Nc1cc(NC(=O)c3ccc4c(c3)C[C@@H]3C(C)(C)[C@H](O)[C@H](F)C[C@@]3(C)O4)ccc12", "system.tested": "OVCAR-4 ovarian", "measured.endpoint": "TGI", "result.value": "> 100 µM"}
{"molecule": "O=c1oc2ccccc2cc1P(=O)(O)O", "system.tested": "OVCAR-4 ovarian", "measured.endpoint": "TGI", "result.value": "> 100 µM"}
